Every entry's value here was drawn from ChEMBL document CHEMBL3758147.

# measurementTarget: UniProt P22303
# assayProcedure: Inhibition of human erythrocyte AChE using acetylthiocholine as substrate assessed as substrate hydrolysis preincubated for 20 mins followed by substrate addition measured after 30 mins by Ellman's assay
assayMetric: IC50

CCC(C)C(=O)[C@@H]1C(=O)[C@]2(CC=C(C)C)OC(=O)[C@](C/C=C(\C)CCC=C(C)C)(C[C@@H](CC=C(C)C)C1(C)C)C2=O (some centres undefined) : Not Active
CC(C)=CCC/C(C)=C/C[C@]12C[C@@H](CC=C(C)C)C(C)(C)[C@H](C(=O)C(C)C)C(=O)[C@](CC=C(C)C)(OC1=O)C2=O : Not Active
CC(C)=CC[C@H]1C[C@@]2(CC=C(C)C)C(=O)O[C@@](CC=C(C)C)(C(=O)[C@@H](C(=O)C(C)C)[C@]1(C)C/C=C/C(C)(C)OO)C2=O : Not Active
CC(C)=CC[C@H]1C[C@@]2(CC=C(C)C)C(=O)C3(CC=C(C)C)CC14C[C@@H](C=C(C)C)C(C(=O)c1ccccc1)(C3=O)C42O : Not Active

###

Listed here: items and their measured IC50.
# measurementTarget: Acetylcholinesterase (Homo sapiens, UniProt P22303)
# Sequence (P22303 whole entry): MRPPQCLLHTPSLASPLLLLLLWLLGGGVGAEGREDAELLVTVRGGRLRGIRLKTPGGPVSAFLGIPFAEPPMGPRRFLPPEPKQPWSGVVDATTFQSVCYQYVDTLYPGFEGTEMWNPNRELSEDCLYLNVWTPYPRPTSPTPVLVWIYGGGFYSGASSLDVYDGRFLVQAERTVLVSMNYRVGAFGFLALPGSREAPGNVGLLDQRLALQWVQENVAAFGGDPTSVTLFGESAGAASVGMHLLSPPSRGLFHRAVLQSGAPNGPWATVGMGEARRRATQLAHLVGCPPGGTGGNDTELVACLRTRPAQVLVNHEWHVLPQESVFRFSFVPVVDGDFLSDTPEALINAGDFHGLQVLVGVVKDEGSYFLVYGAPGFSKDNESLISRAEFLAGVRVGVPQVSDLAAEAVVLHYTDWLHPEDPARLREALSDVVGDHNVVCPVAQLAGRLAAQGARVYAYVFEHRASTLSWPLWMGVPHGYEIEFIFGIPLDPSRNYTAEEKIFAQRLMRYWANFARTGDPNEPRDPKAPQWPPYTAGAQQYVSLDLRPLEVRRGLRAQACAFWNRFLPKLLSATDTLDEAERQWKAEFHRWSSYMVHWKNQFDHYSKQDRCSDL
# assayProcedure: Inhibition of human erythrocyte AChE using acetylthiocholine as substrate assessed as substrate hydrolysis preincubated for 20 mins followed by substrate addition measured after 30 mins by Ellman's assay
# details: read-out: IC50
Report the value in µM with no unit label.

CC(C)=CC[C@H]1C[C@@]2(CC=C(C)C)C(=O)O[C@@](CC=C(C)C)(C(=O)[C@@H](C(=O)C(C)C)[C@]1(C)C/C=C/C(C)(C)O)C2=O : 9.6

Asked: Write IC50 of CCC(C)C(=O)[C@@H]1C(=O)[C@]2(CC=C(C)C)OC(=O)[C@](CC=C(C)C)(C[C@H](CC=C(C)C)[C@@]1(C)C/C=C/C(C)(C)O)C2=O (some centres not stated) ; system used: Acetylcholinesterase (Homo sapiens, UniProt P22303)
Given back: 7.1
